The reported numbers originate from paper PMC10786891.

Target: T1, EsCas13d, nuclease-dead (Eubacterium siraeum, UniProt B0MS50, R295A;H300A;R849A;H854A)
T1 sequence: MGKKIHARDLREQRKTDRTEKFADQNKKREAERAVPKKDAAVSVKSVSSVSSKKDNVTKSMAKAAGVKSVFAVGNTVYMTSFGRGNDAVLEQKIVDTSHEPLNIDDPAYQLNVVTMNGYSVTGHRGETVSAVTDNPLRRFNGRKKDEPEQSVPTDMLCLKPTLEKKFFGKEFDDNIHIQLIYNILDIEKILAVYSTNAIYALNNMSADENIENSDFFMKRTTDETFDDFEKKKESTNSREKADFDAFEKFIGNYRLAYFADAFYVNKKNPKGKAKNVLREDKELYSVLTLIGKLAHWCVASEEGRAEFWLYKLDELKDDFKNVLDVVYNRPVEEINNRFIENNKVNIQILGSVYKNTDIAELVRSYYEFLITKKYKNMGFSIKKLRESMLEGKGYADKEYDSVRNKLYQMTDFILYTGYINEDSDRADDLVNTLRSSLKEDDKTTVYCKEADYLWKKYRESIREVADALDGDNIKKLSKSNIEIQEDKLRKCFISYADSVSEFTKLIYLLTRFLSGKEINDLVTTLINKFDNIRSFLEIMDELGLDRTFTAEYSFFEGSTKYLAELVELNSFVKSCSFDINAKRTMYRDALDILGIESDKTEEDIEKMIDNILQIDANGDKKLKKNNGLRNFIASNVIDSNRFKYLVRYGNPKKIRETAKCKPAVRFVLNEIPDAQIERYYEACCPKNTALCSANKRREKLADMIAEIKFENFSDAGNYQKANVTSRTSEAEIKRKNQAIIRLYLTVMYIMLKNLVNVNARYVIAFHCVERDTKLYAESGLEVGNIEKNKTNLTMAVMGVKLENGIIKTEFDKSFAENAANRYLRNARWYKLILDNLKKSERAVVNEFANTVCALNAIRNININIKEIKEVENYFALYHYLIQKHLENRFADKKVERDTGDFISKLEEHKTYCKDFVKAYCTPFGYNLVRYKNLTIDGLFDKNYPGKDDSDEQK
Experiment: crRNA (strand 1, pre-loaded); Mg2+; 40 mM Tris-HCl pH 7.5, 150 mM NaCl, 6 mM MgCl2, 1 mM DTT, 0.1% Tween-20, 0.2 mg/ml BSA; 25 C; 10 min per concentration, then washed
Conditions: tags: His6-TwinStrep-SUMO cleaved; N-terminal SNAP kept (SNAP-Surface 488); label: 3' end held by stalled T7 RNA polymerase
// NB: equality with 30 nM counts as Not fulfilled; only Kd strictly below is Fulfilled

These solved cases illustrate the format of a correct answer.
target 3 insA 3' of 8,insU 3' of 3 (mixed) RNA 1: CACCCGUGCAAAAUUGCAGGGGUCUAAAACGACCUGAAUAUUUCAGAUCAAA RNA 2: GGGAAUGGAUCCACAUCUACGAAUUCGUUUUUGAUCUGAAAUAUAUCAGGUUCUGCAGAUCGGAAGAGCACACGU; Not fulfilled
target 1 insG 3' of 11,insC 3' of 9 (mixed) RNA 1: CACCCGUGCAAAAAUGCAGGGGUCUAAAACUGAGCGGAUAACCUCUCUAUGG RNA 2: GGGAAUGGAUCCACAUCUACGAAUUCGUACCAUAGAGAGGUGUACUCCGCUCACCGAGAUCGGAAGAGCACACGU; Not fulfilled
target 1 insU 3' of 17,insA 3' of 10 (mixed) RNA 1: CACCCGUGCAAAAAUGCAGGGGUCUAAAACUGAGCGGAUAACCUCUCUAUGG RNA 2: GGGAAUGGAUCCACAUCUACGAAUUCGUACCAUAGUAGAGGUUAAUCCGCUCACCGAGAUCGGAAGAGCACACGU; Fulfilled
target 2 MT 5'PFS GGA 3'PFS CAG (mixed) RNA 1: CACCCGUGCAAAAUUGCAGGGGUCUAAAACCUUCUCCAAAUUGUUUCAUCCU RNA 2: GGGAAUGGAUCCACAUCUACGAAUUCGGAAGGAUGAAACAAUUUGGAGAAGCAGAGAUCGGAAGAGCACACGU; Fulfilled

Next item in the queue.
Enquiry: Bench note: check whether target 1 A20U,C21U (mixed) RNA 1: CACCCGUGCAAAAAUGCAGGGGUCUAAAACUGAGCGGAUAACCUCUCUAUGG RNA 2: GGGAAUGGAUCCACAUCUACGAAUUCGUACUUUAGAGAGGUUAUCCGCUCACCGAGAUCGGAAGAGCACACGU shows Kd below 30 nM
Return: Fulfilled
